Would you kindly list pIC50 for each of these molecules?
- System tested: norovirus 3CL protease (NV 3CLpro) (Norovirus)
- Sequence (Q83883 1101-1281): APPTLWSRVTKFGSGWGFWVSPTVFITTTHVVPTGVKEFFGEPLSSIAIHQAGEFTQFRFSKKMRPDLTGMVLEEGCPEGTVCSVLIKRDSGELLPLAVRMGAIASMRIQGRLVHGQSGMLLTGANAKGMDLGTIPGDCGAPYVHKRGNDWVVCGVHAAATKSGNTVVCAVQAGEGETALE
- Experiment summary: FRET protease assay (3CL protease), enzyme inhibition
- Assay type: biochemical
- Condition notes: Table 1, ester prodrugs; average of at least two determinations; read-out: IC50 (50% inhibitory concentration in the enzyme assay)
Numbers only, as −log10 of the molar value.

These solved cases illustrate the format of a correct answer.
Molecule: CCCCCCCC(=O)OC([C@H](C[C@@H]1CCNC1=O)NC(=O)[C@H](CC1CCCCC1)NC(=O)OCc1cccc(Cl)c1)S(=O)(=O)O (stereo partly shown) [Compound 12]
Assay readout: pIC50
Meas value: 6.05
//
Molecule: CC(C)C[C@H](NC(=O)OCc1ccccc1)C(=O)N[C@@H](C[C@@H]1CCNC1=O)C(OC(=O)c1ccccc1)S(=O)(=O)O (stereo partly shown) [Compound 7]
Assay readout: pIC50
Meas value: 5.14
//
Molecule: CCCCCCOC(=O)OC([C@H](CC1CCNC1=O)NC(=O)[C@H](CC1CCCCC1)NC(=O)OCc1cccc(Cl)c1)S(=O)(=O)O (stereo partly shown) [Compound 17]
Assay readout: pIC50
Meas value: 6.10
//
Molecule: CC(C)C[C@H](NC(=O)OCc1ccccc1)C(=O)N[C@@H](C[C@@H]1CCNC1=O)C(OC(=O)C(C)C)S(=O)(=O)O (stereo partly shown) [Compound 8]
Assay readout: pIC50
Meas value: 5.46

Could you tell me pIC50 for each of these molecules? They are listed below.
1. CCCCCCCC(=O)OC([C@H](C[C@@H]1CCNC1=O)NC(=O)[C@H](CC(C)C)NC(=O)OCc1ccccc1)S(=O)(=O)O (stereo partly shown) [Compound 6]
2. CCC(=O)OC([C@H](CC1CCNC1=O)NC(=O)[C@H](CC1CCCCC1)NC(=O)OCc1cccc(Cl)c1)S(=O)(=O)O (stereo partly shown) [Compound 10]

[out]
1: 5.52; 2: 7.00
